src = patent US20240352105A1

# Experiment description: Thermostability (Tm, Tonset, Tagg) by Nanotemper DSF
# Type: physicochemical
# Set-up: key: temperatures in °C
# Condition summary: anti-Can f2 VHH; 20° C.-95° C. at 1° C./min
Below, each entry is listed alongside its reported Tagg.
Quantity: Tagg

{"Molecule": "SDAB22118-1-D05 (VHH, anti-Can f2 alpaca VHH; prokaryotic expression) VHH: QVQLVESGGGLVQAGGSLGLSCAASGRTFNNYVMGWFRQAPGKEREFVAAISRSGSFTHYAEAVQGRFTISRDNAKITVYLQMNSLKPEDTAVYYCAAGAILMPTERTYDYWGQGTQVTVSS", "Measured number": 39.54}
{"Molecule": "SDAB22118-1-B11 (VHH, anti-Can f2 alpaca VHH; prokaryotic expression) VHH: AVQLVESGGGLVQPGGSLRLSCAASGFTFSNYYMSWYRQAPGKEREWVAFITSTGSSTNYANSVKGRFTASRDNAKNTVYLQMNSLKPEDTAVYYCKTRLWGNDYWGKGTLVTVSS", "Measured number": 44.54}
{"Molecule": "SDAB22118-2-G01 (VHH, anti-Can f2 alpaca VHH; prokaryotic expression) VHH: AVQLVDSGGGLVQAGDSLRLSCVASGRTFSSYVMGWFRQAPGKERLIVATISKSGSLTHYADSVEGRFTISRDNAKNTVYLQMNSLEPEDTAVYYCTPVSDLTGRRLGSYWGQGTQVTVSS", "Measured number": 38.93}
{"Molecule": "SDAB22118-1-F04 (VHH, anti-Can f2 alpaca VHH; prokaryotic expression) VHH: QVQLVESGGGLVQPGGSLRLSCAYSGFTLDNNVIGWFRQAPGKEREFVAAISRSGAFTHYTESVQGRFTISRDNAKNTVYLQMNSLKPEDTAVYYCAAGAILLPTERRYDYWGQGTQVTVSS", "Measured number": 48.08}
{"Molecule": "SDAB22118-1-D08 (VHH, anti-Can f2 alpaca VHH; prokaryotic expression) VHH: EVQLVESGGGLVQPGGSLRLSCVVSGSIFSDNAMGWYRQAPGKQREMVAIISSVGTTNNVDSVNGRFTISRDNAKNTVYLQMNSLKPEDTAVYYCKDFSAPRYWGQGTQVTVSS", "Measured number": 40.82}
